Target: human LXRα (Homo sapiens, UniProt Q13133)
Sequence (Q13133 1-447): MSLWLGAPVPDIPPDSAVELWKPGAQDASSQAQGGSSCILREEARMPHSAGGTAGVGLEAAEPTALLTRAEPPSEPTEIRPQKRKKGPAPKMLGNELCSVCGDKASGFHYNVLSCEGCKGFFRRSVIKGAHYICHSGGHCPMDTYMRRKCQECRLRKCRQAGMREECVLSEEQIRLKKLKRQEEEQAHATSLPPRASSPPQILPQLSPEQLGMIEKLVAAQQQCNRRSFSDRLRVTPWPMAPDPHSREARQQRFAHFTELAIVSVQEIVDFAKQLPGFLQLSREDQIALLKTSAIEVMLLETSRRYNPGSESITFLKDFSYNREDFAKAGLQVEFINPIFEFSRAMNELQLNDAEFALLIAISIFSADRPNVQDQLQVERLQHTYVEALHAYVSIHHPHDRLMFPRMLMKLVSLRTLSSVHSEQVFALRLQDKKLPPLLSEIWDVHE
pIC50: −log10 of the molar value.
property.name: pIC50

Take a look at these entries with their results.
- smiles: "CS(=O)(=O)c1cc(F)cc(Oc2ccc(F)c(-c3ncnc4c(Cl)cccc34)c2)c1"
  target.under.test: "human LXRα (Homo sapiens, UniProt Q13133)"
  pIC50: 5.74
- smiles: "CS(=O)(=O)c1cccc(Oc2ccc(Cl)c(-c3ncnc4c(C(F)(F)F)cccc34)c2)c1"
  target.under.test: "human LXRα (Homo sapiens, UniProt Q13133)"
  pIC50: 6.75

I = CS(=O)(=O)c1cccc(-c2cccc(-c3ncnc4c(C(F)(F)F)cccc34)c2)c1
II = O=S(=O)(CCCO)c1cccc(Oc2cccc(-c3ncnc4c(C(F)(F)F)cccc34)c2)c1
# compare pIC50 for I vs II ; return the one with the smaller value Respond using the label that marks the chosen record.
II
(II: 5.45, I: 5.78)

I = CCS(=O)(=O)c1cccc(Oc2ccc(Cl)c(-c3nc(C)nc4c(C(F)(F)F)cccc34)c2)c1
II = CS(=O)(=O)c1cc(F)cc(Oc2cccc(-c3ncnc4c(C(F)(F)F)cccc34)c2)c1
Could you tell me which of I and II has the lower pIC50 reading? Refer to your chosen item by its label in the answer.
II
(II: 5.20, I: 5.63)

* * *

biological target: human LXRβ (Homo sapiens, UniProt P55055)
pIC50: −log10 of the molar value.
property.name: pIC50

- compound: "Cc1nc(-c2cccc(-c3ccc(S(C)(=O)=O)cc3)c2)c2cccc(C(F)(F)F)c2n1 [Example 38]"
  data.value: 5.20
- compound: "CS(=O)(=O)c1cccc(Oc2ccc(F)c(-c3ncnc4c(C(F)(F)F)cccc34)c2)c1 [Example 52]"
  data.value: 7.85
- compound: "CCCS(=O)(=O)c1cccc(Oc2cccc(-c3ncnc4c(C(F)(F)F)cccc34)c2)c1 [Example 15]"
  data.value: 6.35
- compound: "Cc1nc(-c2cccc(-c3cccc(S(C)(=O)=O)c3)c2)c2cccc(C(F)(F)F)c2n1 [Example 37]"
  data.value: 7.16
- compound: "Cc1nc(-c2cc(OCc3cccc(S(C)(=O)=O)c3)ccc2Cl)c2cccc(C(F)(F)F)c2n1 [Example 63]"
  data.value: 6.74
- compound: "CS(=O)(=O)c1cccc(COc2cccc(-c3ncnc4c(C(F)(F)F)cccc34)c2)c1 [Example 25]"
  data.value: 6.55
- compound: "CCS(=O)(=O)c1cc(F)cc(Oc2ccc(Cl)c(-c3nc(C)nc4c(C(F)(F)F)cccc34)c2)c1 [Example 62]"
  data.value: 7.20
- compound: "CS(=O)(=O)c1cc(Cl)cc(Oc2ccc(F)c(-c3ncnc4c(C(F)(F)F)cccc34)c2)c1 [Example 57]"
  data.value: 6.67

P = CS(=O)(=O)c1cccc(Oc2ccc(Cl)c(-c3ncnc4c(Cl)cccc34)c2)c1 [Example 78]
Q = CS(=O)(=O)c1cccc(-c2cccc(-c3nc(-c4ccccc4)nc4c(C(F)(F)F)cccc34)c2)c1 [Example 43]
Kindly identify which of P and Q has the larger recorded pIC50 value. Answer with the label corresponding to your selection.
P

a = CCS(=O)(=O)c1cc(F)cc(Oc2ccc(F)c(-c3ncnc4c(Cl)cccc34)c2)c1 [Example 65]
b = COCCCS(=O)(=O)c1cccc(Oc2cccc(-c3ncnc4c(C(F)(F)F)cccc34)c2)c1 [Example 7]
c = CS(=O)(=O)c1cc(F)cc(Oc2cccc(-c3ncnc4c(C(F)(F)F)cccc34)c2)c1 [Example 20]
d = O=S(=O)(CCCO)c1cccc(Oc2ccc(F)c(-c3ncnc4c(C(F)(F)F)cccc34)c2)c1 [Example 93]
Hello, I need these entries ordered by pIC50, highest reading first. Thanks! # answer = labels listed in requested order
d, a, c, b

P = O=C(O)Cc1ccc(COc2cccc(-c3ncnc4c(C(F)(F)F)cccc34)c2)cc1 [Example 45]
Q = CC(C)S(=O)(=O)c1cccc(Oc2ccc(F)c(-c3ncnc4c(C(F)(F)F)cccc34)c2)c1 [Example 54]
R = CC(C)S(=O)(=O)c1cccc(Oc2ccc(Cl)c(-c3ncnc4c(C(F)(F)F)cccc34)c2)c1 [Example 51]
S = O=S(=O)(CCCO)c1ccc(Oc2cccc(-c3ncnc4c(C(F)(F)F)cccc34)c2)cc1 [Example 19]
Exam item: list the entries in increasing order of pIC50. Thanks in advance for listing the labels in the requested order.
S, P, Q, R

* * *

Observed IC50, system human LXRα (Homo sapiens, UniProt Q13133).
property.name: IC50 (nM)

- smiles: "CCS(=O)(=O)c1cc(F)cc(Oc2ccc(F)c(-c3ncnc4c(Cl)cccc34)c2)c1"
  data.value: 2950
- smiles: "CS(=O)(=O)c1cccc(Oc2ccc(Cl)c(-c3ncnc4c(Cl)cccc34)c2)c1"
  data.value: 325
- smiles: "O=S(=O)(CCCO)c1cccc(Oc2ccc(F)c(-c3ncnc4c(C(F)(F)F)cccc34)c2)c1"
  data.value: 714
- smiles: "CCS(=O)(=O)c1cccc(Oc2ccc(Cl)c(-c3ncnc4c(C(F)(F)F)cccc34)c2)c1"
  data.value: 236
- smiles: "O=S(=O)(CCCO)c1ccc(Oc2cccc(-c3ncnc4c(C(F)(F)F)cccc34)c2)cc1"
  data.value: 64800
- smiles: "CS(=O)(=O)c1cccc(Oc2ccc(F)c(-c3ncnc4c(C(F)(F)F)cccc34)c2)c1"
  data.value: 284
- smiles: "CS(=O)(=O)c1cccc(COc2ccc(F)c(-c3ncnc4c(C(F)(F)F)cccc34)c2)c1"
  data.value: 787
- smiles: "CC(C)S(=O)(=O)c1cccc(Oc2cccc(-c3ncnc4c(C(F)(F)F)cccc34)c2)c1"
  data.value: 1020
- smiles: "O=S(=O)(CCCO)c1cccc(Oc2ccc(F)c(-c3ncnc4c(Cl)cccc34)c2)c1"
  data.value: 2520
- smiles: "Cc1nc(-c2cc(Oc3cccc(S(=O)(=O)C(C)C)c3)ccc2Cl)c2cccc(C(F)(F)F)c2n1"
  data.value: 524

I = CS(=O)(=O)c1cccc(COc2ccc(F)c(-c3ncnc4c(Cl)cccc34)c2)c1
II = CS(=O)(=O)c1cccc(-c2cccc(-c3nc(C4CC4)nc4c(C(F)(F)F)cccc34)c2)c1
From the items above, decide which of I and II has the lower IC50 reading. Identify your pick by its label.
II
(II: 714 nM, I: 1540 nM)

* * *

Protein target, amino acids: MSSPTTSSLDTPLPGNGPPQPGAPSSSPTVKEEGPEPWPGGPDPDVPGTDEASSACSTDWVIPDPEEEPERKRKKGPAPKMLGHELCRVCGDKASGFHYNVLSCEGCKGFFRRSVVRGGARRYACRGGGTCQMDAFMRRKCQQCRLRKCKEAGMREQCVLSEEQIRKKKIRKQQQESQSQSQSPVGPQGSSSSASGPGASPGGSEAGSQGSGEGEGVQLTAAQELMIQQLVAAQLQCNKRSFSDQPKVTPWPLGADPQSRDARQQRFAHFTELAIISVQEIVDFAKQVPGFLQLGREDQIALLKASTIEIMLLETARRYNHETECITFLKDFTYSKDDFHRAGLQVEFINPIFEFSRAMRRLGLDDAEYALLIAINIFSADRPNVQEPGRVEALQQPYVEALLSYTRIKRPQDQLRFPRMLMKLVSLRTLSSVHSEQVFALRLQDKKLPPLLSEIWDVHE
property.name: IC50 (nM)

I = CC(C)S(=O)(=O)c1cccc(Oc2cccc(-c3ncnc4c(C(F)(F)F)cccc34)c2)c1
II = CCS(=O)(=O)c1ccc(Oc2cccc(-c3ncnc4c(C(F)(F)F)cccc34)c2)cc1
III = CS(=O)(=O)c1cccc(COc2ccc(F)c(-c3ncnc4c(Cl)cccc34)c2)c1
IV = CCS(=O)(=O)c1cccc(Oc2ccc(Cl)c(-c3ncnc4c(C(F)(F)F)cccc34)c2)c1
V = CCS(=O)(=O)c1cccc(Oc2ccc(F)c(-c3ncnc4c(Cl)cccc34)c2)c1
Sort the entries above by IC50, smallest first. Answer by listing the labels in the order asked for.
IV, V, I, III, II
(IV: 5 nM, V: 36 nM, I: 63 nM, III: 99 nM, II: 2240 nM)
